Recorded residual activity values for a group of compounds are listed next.
TARGET_ENTITY: CDK6 CCND3 (human) (UniProt P30281+Q00534)
Sequence (P30281 whole entry, looked up): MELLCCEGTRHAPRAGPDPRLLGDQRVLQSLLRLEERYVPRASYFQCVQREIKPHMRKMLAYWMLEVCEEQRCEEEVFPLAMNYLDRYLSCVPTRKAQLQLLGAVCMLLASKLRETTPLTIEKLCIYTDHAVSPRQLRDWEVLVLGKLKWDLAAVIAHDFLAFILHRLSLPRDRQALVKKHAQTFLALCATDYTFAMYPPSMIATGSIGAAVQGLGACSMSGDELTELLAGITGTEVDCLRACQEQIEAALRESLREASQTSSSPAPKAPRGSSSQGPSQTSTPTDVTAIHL
Sequence (Q00534 whole entry, looked up): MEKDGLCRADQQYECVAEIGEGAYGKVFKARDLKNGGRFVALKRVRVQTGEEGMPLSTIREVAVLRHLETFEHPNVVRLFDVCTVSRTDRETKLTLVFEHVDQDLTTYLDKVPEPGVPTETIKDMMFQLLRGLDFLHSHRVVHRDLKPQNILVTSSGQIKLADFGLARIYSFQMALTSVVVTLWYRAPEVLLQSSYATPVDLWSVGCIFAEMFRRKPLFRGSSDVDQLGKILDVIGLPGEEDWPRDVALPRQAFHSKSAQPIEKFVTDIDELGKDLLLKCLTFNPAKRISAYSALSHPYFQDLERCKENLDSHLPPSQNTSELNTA
ASSAY_METHOD_TEXT: radiometric filter-binding kinase assay, Kinase HotSpot
RUN_PARAMETERS: compound 0.5 µM; ATP 10 µM

| COMPOUND | residual activity [%] |
| --- | --- |
| O=C1Nc2ccccc2/C1=C1/Nc2ccccc2/C1=N\OCCC(O)CO (stereo unspecified) | 10.2 |
| O=C1NC(=O)C(c2cn(CCCO)c3ncccc23)=C1c1cnccn1 | 84.4 |
| O=C(O)/C=C/c1cc(Br)c(Br)c(Br)c1Br | 102 |
| COc1cc2ncc(-c3ccccc3)nc2cc1OC | 93.7 |
| O=C1Cc2c([nH]c3ccc(Br)cc23)-c2ccccc2N1 | 94.4 |
| COc1ccc(OC)c2c(=S)c3ccccc3[nH]c12 | 102 |

The reported numbers originate from the kinase profiling compilation of Christmann-Franck et al. (2016).
